System: CEM/ADR5000 cells
Experiment: Resazurin reduction assay (RRA), cytotoxicity
Type: cell-based, human
Conditions: Homo sapiens; CEM/ADR5000, 72 h
So I've got a bunch of compounds here, and I need their IC50 values.
The reply should contain only the number, in µM.

Qu. Find the measured IC50 of COc1cc([C@H]2Oc3cc(-c4cc(=O)c5c(O)cc(O)cc5o4)ccc3O[C@@H]2CO)ccc1O [Compound 2, hydnocarpin] and report it.
Ans. 3.07

Qu. Find the measured IC50 of CC(C)=CC(=O)c1c[nH]c2ccccc12 [Compound 1] and report it.
Ans. 32

Qu. Find the measured IC50 of C[C@@H](O)C1CCC2C3CC=C4C[C@@H](O[C@@H]5OC[C@H](O)[C@H](O)[C@H]5O)CC[C@]4(C)C3CC[C@@]21C (stereo partly shown) [Compound 3] and report it.
Ans. 73.9
